Where these numbers come from: patent US11407767B2

Listed next: entries and their corresponding pIC50.
- Tgt: CDK12/CycK (Homo sapiens, UniProt Q9NYV4)
- Sequence (Q9NYV4 whole entry): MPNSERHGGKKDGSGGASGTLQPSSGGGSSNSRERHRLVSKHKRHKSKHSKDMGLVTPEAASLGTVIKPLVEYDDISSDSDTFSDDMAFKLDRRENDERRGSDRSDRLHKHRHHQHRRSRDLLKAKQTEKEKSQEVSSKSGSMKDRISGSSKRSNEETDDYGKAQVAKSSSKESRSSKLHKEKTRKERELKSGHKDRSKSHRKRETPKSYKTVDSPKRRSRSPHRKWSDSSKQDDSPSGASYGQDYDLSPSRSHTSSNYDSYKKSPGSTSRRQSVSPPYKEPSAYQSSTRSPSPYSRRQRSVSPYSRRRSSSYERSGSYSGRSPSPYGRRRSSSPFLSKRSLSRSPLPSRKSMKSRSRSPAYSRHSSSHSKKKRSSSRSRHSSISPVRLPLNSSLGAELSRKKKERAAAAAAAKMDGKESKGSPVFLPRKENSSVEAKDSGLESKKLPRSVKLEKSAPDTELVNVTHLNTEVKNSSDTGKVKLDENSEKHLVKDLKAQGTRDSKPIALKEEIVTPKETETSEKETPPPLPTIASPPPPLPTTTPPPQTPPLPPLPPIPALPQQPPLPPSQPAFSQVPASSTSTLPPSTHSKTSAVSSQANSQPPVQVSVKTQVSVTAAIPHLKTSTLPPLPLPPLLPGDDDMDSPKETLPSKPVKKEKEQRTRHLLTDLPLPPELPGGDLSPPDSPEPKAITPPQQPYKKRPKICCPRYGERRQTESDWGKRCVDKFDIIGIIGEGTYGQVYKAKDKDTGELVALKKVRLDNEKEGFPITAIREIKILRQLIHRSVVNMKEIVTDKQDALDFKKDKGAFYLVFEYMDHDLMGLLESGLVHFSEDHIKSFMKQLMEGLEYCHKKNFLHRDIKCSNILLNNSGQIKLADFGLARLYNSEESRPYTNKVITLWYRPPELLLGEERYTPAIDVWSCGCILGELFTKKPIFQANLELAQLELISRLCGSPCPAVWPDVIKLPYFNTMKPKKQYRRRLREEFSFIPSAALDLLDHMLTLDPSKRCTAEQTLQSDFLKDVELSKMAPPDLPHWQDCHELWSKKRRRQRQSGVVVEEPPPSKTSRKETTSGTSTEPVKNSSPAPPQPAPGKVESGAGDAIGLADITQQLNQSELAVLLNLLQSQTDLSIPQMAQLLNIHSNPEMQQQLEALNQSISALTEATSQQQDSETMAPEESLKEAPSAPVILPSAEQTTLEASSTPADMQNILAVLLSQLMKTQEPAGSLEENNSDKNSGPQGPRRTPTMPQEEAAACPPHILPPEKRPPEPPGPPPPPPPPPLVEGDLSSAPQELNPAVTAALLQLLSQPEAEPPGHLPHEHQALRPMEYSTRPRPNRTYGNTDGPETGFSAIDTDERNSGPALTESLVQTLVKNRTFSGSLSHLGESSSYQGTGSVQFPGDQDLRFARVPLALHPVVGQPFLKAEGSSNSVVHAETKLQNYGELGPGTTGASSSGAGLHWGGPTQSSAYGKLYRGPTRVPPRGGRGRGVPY
- Sequence (O75909 whole entry partner): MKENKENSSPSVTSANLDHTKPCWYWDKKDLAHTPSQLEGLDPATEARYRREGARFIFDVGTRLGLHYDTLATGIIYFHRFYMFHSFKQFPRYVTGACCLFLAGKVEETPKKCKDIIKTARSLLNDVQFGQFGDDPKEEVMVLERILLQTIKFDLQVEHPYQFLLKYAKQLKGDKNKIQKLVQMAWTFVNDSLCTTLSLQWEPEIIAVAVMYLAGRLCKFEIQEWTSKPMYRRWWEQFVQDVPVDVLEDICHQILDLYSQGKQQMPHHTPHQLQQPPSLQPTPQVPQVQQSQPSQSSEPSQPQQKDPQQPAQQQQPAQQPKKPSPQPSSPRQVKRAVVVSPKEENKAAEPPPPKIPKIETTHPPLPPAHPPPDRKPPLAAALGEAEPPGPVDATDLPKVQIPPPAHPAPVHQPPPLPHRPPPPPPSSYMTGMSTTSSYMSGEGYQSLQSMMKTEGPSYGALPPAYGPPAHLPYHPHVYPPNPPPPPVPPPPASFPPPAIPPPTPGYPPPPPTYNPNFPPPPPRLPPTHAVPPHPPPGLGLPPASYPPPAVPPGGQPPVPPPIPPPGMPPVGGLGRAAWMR
- Assay Explanation: Inhibition of CDK12 (ADP-Glo kinase assay)
- Condition Set: 60 nM CDK12/CycK, 30 minutes pre-incubation, 1 μM ATP, 0.5 μM RBER-IRStide substrate, 1 h at 25° C., read-out: CDK12/cyclin K IC50
pIC50: −log10 of the molar value. Where a name gives a salt, the structure may show the parent alone.
Attribute Measured: pIC50

[[record]]
molecule = "C=CC(=O)N1CCC[C@@H]1C(=O)NCCc1cc2c(-c3cnn4ncccc34)c(Cl)cnc2[nH]1"
reported = "> 7.00"

[[record]]
molecule = "CN(C)CCOCc1cc2c(-c3cnn4ncccc34)ccnc2[nH]1 [Example 168, Formate]"
reported = "4.52 to 6.00"

[[record]]
molecule = "COc1ccc(Cn2cc(-c3ccnc4[nH]ccc34)nn2)cc1"
reported = "4.52 to 6.00"

[[record]]
molecule = "C=CC(=O)Nc1cccc(C(=O)N2CCN(Cc3cc4c(-c5cnn6ncccc56)ccnc4[nH]3)CC2)c1"
reported = "6.00 to 7.00"

[[record]]
molecule = "C=CC(=O)N1CCC(C(=O)N2CCC(c3cc4c(-c5cnn6ncccc56)ccnc4[nH]3)C2)CC1 (centres unmarked)"
reported = "> 7.00"

[[record]]
molecule = "CC(C)=C(C#N)C(=O)N1CCC[C@H]1C(=O)NCCc1cc2c(-c3cnn4ncccc34)ccnc2[nH]1"
reported = "4.52 to 6.00"

[[record]]
molecule = "CC(C)(C)OC(=O)N1CCN(Cc2cc3c(-c4cnn5ncccc45)ccnc3[nH]2)CC1"
reported = "4.52 to 6.00"

[[record]]
molecule = "C#CC(=O)N1CCC(C(=O)N2CCC(c3cc4c(-c5cnn6ncccc56)ccnc4[nH]3)C2)CC1 (centres unmarked)"
reported = "> 7.00"

